Target: ATP-dependent translocase ABCB1 (Homo sapiens)
Test: P-glycoprotein substrate transport blockade – cell-based (AID 377)
Conditions: MDR1-expressing cells, fluorescent substrate accumulation slope; active compounds read high; concentration not given here
Results filed as inconclusive are left out.
Each record's class is read off its fluorescence slope change using these ranges: lower bin (below 20%), middle bin (20% to below 70%), upper bin (70% or more)

CC(=O)Nc1ccc(O)cc1: middle bin
C[C@]12C=CC(=O)C=C1CC[C@H]1[C@@H]3C[C@@H](O)[C@](O)(C(=O)CO)[C@@]3(C)C[C@H](O)[C@@]12F: middle bin
CN1CCOC(c2ccccc2)c2ccccc2C1 (stereo not given): lower bin
COc1ccc(NS(=O)(=O)c2ccc(N)cc2)nn1: lower bin
CN1CCCCC1CCN1c2ccccc2Sc2ccc(S(C)=O)cc21 (stereo not given): middle bin

The entry to classify is `CC(C)(Oc1ccc(CCNC(=O)c2ccc(Cl)cc2)cc1)C(=O)O` ; which class holds it?
upper bin

The entry to classify is CC1CCC(NC(=O)N(CCCl)N=O)CC1 (stereo not given) ; which class holds it?
lower bin

The entry to classify is CN1CCN2c3ccccc3Cc3ccccc3C2C1 (stereo not given) ; which class holds it?
middle bin

====

Assay: viability loss in pontine glioma line – cell-based, JHH-DIPG-1, MIPE4.0, CellTiter-Glo, qHTS, dose response (AID 1347062);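 on AC50: cells exposed to compound for two days before readout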
Conditions: JHH-DIPG-1 viability, CellTiter-Glo ATP luminescence
Results filed as inconclusive are left out. Calls of active or inactive are those of the source. No cut-off is given here; in the data, nearly all actives have AC50 up to about 27 µM.
Result category, one only: Yes = active, No = inactive

NCCS(=O)(=O)O: No
O=C(O)c1cccnc1Nc1cccc(C(F)(F)F)c1: No
Cc1cn([C@H]2C=C[C@@H](CO)O2)c(=O)[nH]c1=O: No
Cc1ncc([N+](=O)[O-])n1CCO: No
CC1=NN(c2ccccc2)C(=O)C1: No

// switching to the query compound
Record lookup: outcome of this test for `CC(=O)[C@]1(O)Cc2c(O)c3c(c(O)c2[C@@H](O[C@H]2C[C@H](N)[C@H](O)[C@H](C)O2)C1)C(=O)c1ccccc1C3=O` ?
Yes

====

Test: NPC library primary testing for decreased DLD-1 cell viability via CellTiter-Glo (AID 1117346)
Settings: DLD-1 viability, CellTiter-Glo luminescence; at 20 µM (top of the series)
Activity calls are given as the source filed them.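 Rule for the calls: active = compounds that lower survival of DLD-1 colon cancer cells in the luminescence readout, no cutoff given; inactive = the rest.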
Result category, one only: true (active), false (inactive)

CCCCC(CC)CN=C(N)NC(N)=NCCCCCCN=C(N)NC(N)=NCC(CC)CCCC (configuration not stated): true
CN(C)CCC=C1c2ccccc2C=Cc2ccccc21: false
Cc1[nH]c(C)c(Cl)c(=O)c1Cl: false
CCN(CC)CCNC(=O)c1ccc(NC(C)=O)cc1: false
COc1cc(NS(=O)(=O)c2ccc(N)cc2)nc(OC)n1: false
COc1cc2nc(N3CCN(C(=O)C4COc5ccccc5O4)CC3)nc(N)c2cc1OC (configuration not stated): true

Record lookup: outcome of this test for CCCCCN(CCCCC)C(=O)C(CCC(=O)O)NC(=O)c1ccc(Cl)c(Cl)c1 (configuration not stated) ?
false

Record lookup: outcome of this test for O=C1CC2(CCCC2)CC(=O)N1CCNCC1COc2ccccc2O1 (configuration not stated) ?
false

Record lookup: outcome of this test for `Nc1nc(=S)c2[nH]cnc2[nH]1` ?
true

Record lookup: outcome of this test for `NNc1nncc2ccccc12` ?
false

Record lookup: outcome of this test for `CC(=O)OCC(=O)[C@@]1(O)[C@H](C)C[C@H]2[C@@H]3CCC4=CC(=O)C=C[C@]4(C)[C@@]3(F)[C@@H](O)C[C@@]21C` ?
false

Record lookup: outcome of this test for `CCN1CCN(c2cc3c(cc2F)c(=O)c(C(=O)O)cn3C2CC2)CC1` ?
false

Record lookup: outcome of this test for `CC[C@@]1(O)C(=O)OCc2c1cc1n(c2=O)Cc2cc3c(CN(C)C)c(O)ccc3nc2-1` ?
true

Record lookup: outcome of this test for CCC(C)n1ncn(-c2ccc(N3CCN(c4ccc(OC[C@H]5CO[C@](Cn6cncn6)(c6ccc(Cl)cc6Cl)O5)cc4)CC3)cc2)c1=O (some centres not stated) ?
false

Record lookup: outcome of this test for `CC(C)NNC(=O)c1ccncc1` ?
false

From: PubChem BioAssay
